experiment: binders of probe aFGF2 on microarray, primary screen, stem cell growth factor project, biochemical, small-molecule microarray, fluorescence 635/667 (AID 1067); conditions: higher = more signal;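 note: measures binding of biotinylated aFGF2 protein to printed compounds on slides; z-score merges feature fluorescence and signal-to-noise across triplicate slides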
experimental endpoint: composite z-score
// keep it numeric: no unit symbol after the value

CN(C)C(=O)C1N=C(c2ccc(OCCCO)cc2)N(c2ccccc2)O1 (centres undefined) :: 0.0097
CCCCO[C@H]1C[C@H]2C(I)=C[C@@H]1C(=O)[C@]21CO1 :: -0.0706
Cc1ccc(S[C@]2(C(=O)O)CC(=O)N(Cc3cc(C(F)(F)F)cc(C(F)(F)F)c3)[C@@H]2c2ccc(CO)cc2)cc1 :: -0.175

Consider the record given below.
## Input // returns reported composite z-score for input "COCCOC(=O)N1C(=O)[C@@]2(c3ccccc31)[C@H](C(=O)N1CCN(c3ncccn3)CC1)[C@H]1C(=O)O[C@H](c3ccccc3)[C@H](c3ccccc3)N1[C@@H]2c1ccc(O)cc1"
## Output -0.0136
